Reported CC50 at 5 days values are given for each entry in this list.
PROTOCOL NOTES: in vitro
STUDY CONDITIONS: human, uninfected MT-4 cells
Write the answer as a number in µM, unit excluded.

Below: 2 compounds and their reported CC50 at 5 days.
- COC1=NO[C@@]2(CC[C@H](C)N3C[C@H]2n2cc(C(=O)NCc4c(F)cc(F)cc4F)c(=O)c(O)c2C3=O)[C@H]1O: 25.8
- CC1=NO[C@@]2(CC[C@H](C)N3C[C@H]2n2cc(C(=O)NCc4c(F)cc(F)cc4F)c(=O)c(O)c2C3=O)C1: 20.1

Query: Item COC1=NO[C@@]2(CC[C@H](CF)N3C[C@H]2n2cc(C(=O)NCc4c(F)cc(F)cc4F)c(=O)c(O)c2C3=O)C1 has what recorded CC50 at 5 days?
Response: 36.5

Query: Tell me the measured CC50 at 5 days of C[C@H]1CC[C@]2(CC(n3cccn3)=NO2)[C@H]2CN1C(=O)c1c(O)c(=O)c(C(=O)NCc3c(F)cc(F)cc3F)cn12 , please.
Response: 1.48

Query: Query (compound): C[C@H]1CC[C@]2(CC(OCC(F)(F)F)=NO2)[C@H]2CN1C(=O)c1c(O)c(=O)c(C(=O)NCc3ccc(F)cc3F)cn12 ; field requested: CC50 at 5 days
Response: 7.71

Query: I have this compound here, C[C@H]1CC[C@]2(CC(CO)=NO2)[C@H]2CN1C(=O)c1c(O)c(=O)c(C(=O)NCc3ccc(F)cc3F)cn12 , and I need its recorded CC50 at 5 days.
Response: 49.4

Query: Quick one: CC50 at 5 days of CCCC1=NO[C@@]2(CC[C@H](C)N3C[C@H]2n2cc(C(=O)NCc4c(F)cc(F)cc4F)c(=O)c(O)c2C3=O)C1 ?
Response: 15.7

Query: Field request: CC50 at 5 days | item: CC1=NO[C@@]2(CC[C@@H](C)N3C[C@H]2n2cc(C(=O)NCc4c(F)cc(F)cc4F)c(=O)c(O)c2C3=O)C1
Response: 12.7

----------
Tested on: pLAI reporter virus
PROTOCOL NOTES: microbe, parasite or virus in culture
Format: cell-based, HIV
STUDY CONDITIONS: Human immunodeficiency virus 1, MT4, 72 h, read-out: RLUC CCM EC50
ASSAY READOUT: EC50 (nM)
Reply with just the number (in nM).

Guide cases for EC50, answers given:
* CC1=NO[C@@]2(CC[C@H](C)N3C[C@H]2n2cc(C(=O)NCc4ccc(F)cc4F)c(=O)c(O)c2C3=O)C1=O | 0.8
* CC1=NO[C@@]2(CC[C@H](C)N3C[C@H]2n2cc(C(=O)NCc4ccc(F)cc4F)c(=O)c(O)c2C3=O)[C@H]1O | 0.4
* COC1=NO[C@@]2(CC[C@H](C)N3C[C@H]2n2cc(C(=O)NCc4ccc(F)cc4F)c(=O)c(O)c2C3=O)C1 | 0.2
* COc1ccc(CN2O[C@@]3(CC[C@H](C)N4C[C@H]3n3cc(C(=O)NCc5c(F)cc(F)cc5F)c(=O)c(O)c3C4=O)CC2=O)cc1 | 0.5
* C[C@H]1CC[C@]2(CC(=O)N(Cc3ccc4ccccc4c3)O2)[C@H]2CN1C(=O)c1c(O)c(=O)c(C(=O)NCc3c(F)cc(F)cc3F)cn12 | 0.3

Query: Please look up its EC50: C[C@H]1CC[C@]2(CC(N(C)C)=NO2)[C@H]2CN1C(=O)c1c(O)c(=O)c(C(=O)NCc3c(F)cc(F)cc3F)cn12
Response: 0.3

----------
Tested on: pLAI reporter virus
PROTOCOL NOTES: microbe, parasite or virus in culture
Format: cell-based, HIV
STUDY CONDITIONS: Human immunodeficiency virus 1, MT4, 72 h, read-out: RLUC CCM EC50
pEC50: −log10 of the molar value.
Please use Met whenever pEC50 is not below 9, and Not met whenever it is.

Some entries whose results are on file:
• CCC1=NO[C@@]2(CC[C@H](C)N3C[C@H]2n2cc(C(=O)NCc4ccc(F)cc4F)c(=O)c(O)c2C3=O)O1 [Example 94] = Met
• C[C@H]1CC[C@]2(CC(C#CC(C)(C)O)=NO2)[C@H]2CN1C(=O)c1c(O)c(=O)c(C(=O)NCc3c(F)cc(F)cc3F)cn12 [Example 81] = Met
• CC1=NO[C@@]2(CC[C@H](C)N3C[C@H]2n2cc(C(=O)NCc4c(F)cc(F)cc4F)c(=O)c(O)c2C3=O)[C@H]1F [Example 32] = Met

Okay, now this compound:
Query: // inclusive: pEC50 at least 9? input: C[C@H]1CC[C@]2(OC[C@@H](Cc3ccccc3)O2)[C@H]2CN1C(=O)c1c(O)c(=O)c(C(=O)NCc3c(F)cc(F)cc3F)cn12 (single isomer, unassigned) [169 (peak 2)]
Response: Not met

----------
PROTOCOL NOTES: in vitro
STUDY CONDITIONS: human, uninfected MT-4 cells
ASSAY READOUT: CC50 at 5 days (µM)
Field format: number, assumed µM, no unit text.

Field: example entries. Status: answers known.
• C[C@H]1CC[C@@]2(COCCO2)[C@H]2CN1C(=O)c1c(O)c(=O)c(C(=O)NCc3c(F)cc(F)cc3F)cn12 [Example 140] = 22.8
• C[C@H]1CC[C@]2(COCCO2)[C@H]2CN1C(=O)c1c(O)c(=O)c(C(=O)NCc3c(F)cc(F)cc3F)cn12 [Example 139] = 30.9
• C[C@H]1CCC2(OCCO2)[C@H]2CN1C(=O)c1c(O)c(=O)c(C(=O)NCc3c(F)cc(F)cc3F)cn12 [Example 125] = 24.2

Query: Quick check: CC50 at 5 days of C[C@H]1CC[C@@]2(Cc3ccccc3O2)[C@H]2CN1C(=O)c1c(O)c(=O)c(C(=O)NCc3c(F)cc(F)cc3F)cn12 [Example 144] ?
Response: 4.81

Query: Report CC50 at 5 days for C[C@H]1CC[C@]2(CC=NO2)[C@H]2CN1C(=O)c1c(O)c(=O)c(C(=O)NCc3c(F)cc(F)cc3F)cn12 [Example 72] please.
Response: 31.9

----------
Reported CC50 at 5 days values are given for each entry in this list.
PROTOCOL NOTES: in vitro
STUDY CONDITIONS: human, uninfected MT-4 cells
Respond with the bare value in µM.

Some solved cases for reference:
* CO[C@@H]1CS[C@@]2(CC[C@H](C)N3C[C@H]2n2cc(C(=O)NCc4c(F)cc(F)cc4F)c(=O)c(O)c2C3=O)O1 (single isomer, unassigned) [170 (peak 4)] | 33.1
* COC1=NO[C@@]2(CC[C@H](C)N3C[C@H]2n2cc(C(=O)NCc4ccc(F)c(Cl)c4F)c(=O)c(O)c2C3=O)C1 | 29.8
* CC1=NO[C@@]2(CC[C@H](CF)N3C[C@H]2n2cc(C(=O)NCc4ccc(F)cc4F)c(=O)c(O)c2C3=O)C1 | 28.4

Shift focus to the following entry.
Query: I have this molecule here, CC1=NO[C@@]2(CC[C@H](C)N3C[C@H]2n2cc(C(=O)NCc4ccc(F)c(Cl)c4F)c(=O)c(O)c2C3=O)[C@H]1O , and I need its recorded CC50 at 5 days.
Response: 20.3

----------
Test system: HIV-1 (IIIB)
PROTOCOL NOTES: microbe, parasite or virus in culture
Format: cell-based
STUDY CONDITIONS: Human immunodeficiency virus 1, IIIB, MT4, 120 h, HIV-1 (IIIB) in MT-4 cells, 5 days incubation, Cell Titer Glo; read-out: MT4 EC50
Each record here notes measured EC50.
Form entry: value (nM) — number only.

Solved entries:
* CC1=NO[C@]2(CC[C@H](C)N3C[C@H]2n2cc(C(=O)NCc4ccc(F)cc4F)c(=O)c(O)c2C3=O)C1 [Example 2] | 11.2
* C[C@H]1CO[C@]2(CC[C@H](C)N3C[C@H]2n2cc(C(=O)NCc4c(F)cc(F)cc4F)c(=O)c(O)c2C3=O)O1 [Example 127] | 1.2

Query: Item C[C@H]1CC[C@@]2(Cc3ccccc3O2)[C@H]2CN1C(=O)c1c(O)c(=O)c(C(=O)NCc3c(F)cc(F)cc3F)cn12 [Example 144] has what recorded EC50?
Response: 1.3

Query: If you can, please state the reported EC50 value of C[C@H]1CC[C@]2(CC(=O)N(C)O2)[C@H]2CN1C(=O)c1c(O)c(=O)c(C(=O)NCc3c(F)cc(F)cc3F)cn12 [Example 108] .
Response: 3.5

----------
# pEC50 listing for each entry below
Test system: pLAI reporter virus
PROTOCOL NOTES: microbe, parasite or virus in culture
Type: cell-based, HIV
STUDY CONDITIONS: Human immunodeficiency virus 1, MT4, 72 h, read-out: RLUC CCM EC50
Answer as the number alone; pEC50 is minus log10 of concentration in mol/L.

Query: Request: pEC50, test system pLAI reporter virus, entry C[C@H]1CC[C@@]2(ON=C3OCCC[C@@H]32)[C@H]2CN1C(=O)c1c(O)c(=O)c(C(=O)NCc3c(F)cc(F)cc3F)cn12 [Example 50]
Response: 9.30

Query: Query for pLAI reporter virus: what pEC50 does the record show for C[C@H]1CC[C@@]2(COC(C)(C)O2)[C@H]2CN1C(=O)c1c(O)c(=O)c(C(=O)NCc3c(F)cc(F)cc3F)cn12 [Example 138] ?
Response: 9.30

Query: Query for pLAI reporter virus: what pEC50 does the record show for C[C@H]1CCC2(OCCO2)[C@H]2CN1C(=O)c1c(O)c(=O)c(C(=O)NCc3ccc(F)cc3F)cn12 [Example 129] ?
Response: 9.70
